Test: physchem
Settings: 37 °C, aqueous with cosolvent or surfactant or cyclodextrin, thermodynamic from solid, 5% DMSO + 95% H2O, x ± s, n = 3
metricName: solubility at 24 h (mg/mL)
The response must be a number in mg/mL with no trailing unit.

Form field: reported solubility at 24 h of `C[C@H]1CCC/C=C/[C@@H]2C[C@H](OC(=O)/C=C/c3ccccc3)C[C@H]2[C@H](O)/C=C/C(=O)O1`
0.22

----------
Catalogue of molecules with associated IC50
Tested on: human leukemia K562 cells
Experiment: Cell proliferation assay (CCK-8)
Format: cell-based
Details: K562, 72 h

In the examples that follow, each entry is paired with its recorded IC50.
C[C@H]1CCC/C=C/[C@@H]2C[C@H](O)C[C@H]2[C@H](OC(=O)/C=C/c2ccc3c(c2)OCO3)/C=C/C(=O)O1 [Compound 9b]
100 to 1000 nM
C[C@H]1CCC/C=C/[C@@H]2C[C@H](OC(=O)/C=C/c3cnc4ccccc4c3)C[C@H]2[C@H](OC(=O)/C=C/c2cnc3ccccc3c2)/C=C/C(=O)O1 [Compound 17c]
100 to 1000 nM

Would you kindly look at the next entry?
Entry C[C@H]1CCC/C=C/[C@@H]2C[C@H](O)C[C@H]2[C@H](O)/C=C/C(=O)O1 [BFA, Brefeldin A] has what IC50?
100 to 1000 nM

// data source = patent US12577219B2
